- Tested on: IL6 secretion by OCI-LY3 ABC-DLBCL cells
- test_summary: Human IL6 Mesoscale assay (OCI-LY3)
- Format: cell-based
- test_context: Homo sapiens, 24 h
readout: IC50 (nM)
Kindly answer with a numeric value in nM, unit omitted.

N#Cc1ncc(NC(=O)c2cnn(-c3cccc4c(=O)[nH]ccc34)c2C(F)(F)F)cc1C(F)(F)F has a reported IC50 of 457

So for N#Cc1cc(NC(=O)c2cnn(-c3cccc4nc(F)ccc34)c2C(F)(F)F)cnc1-n1nccn1 , the logged IC50 turned out to be 110

response.value for N#Cc1cc(NC(=O)c2cnn(-c3cccc4nnsc34)c2C(F)(F)F)cnc1-n1nccn1 (field: IC50) = 72

Quick note, IC50 for O=C(Nc1cnc(-n2nccn2)c(Cl)c1)c1cnn(-c2cccc3nc([C@@H]4CCCO4)ccc23)c1C(F)(F)F (single isomer, unassigned) landed at 1120

Measured IC50 of CNc1ncc(-n2ncc(C(=O)Nc3cnc(-n4nccn4)c(C#N)c3)c2C(F)(F)F)c2cccc(F)c12 : 646

Item: CN(C)Cc1cnnn1-c1ncc(NC(=O)c2cnn(-c3cccc4ncccc34)c2C(F)(F)F)cc1Cl | IC50: 170

* * *

- Test system: IL10 secretion by TMD8 ABC-DLBCL cells
- test_summary: Human IL10 Mesoscale assay (TMD-8)
- Format: cell-based
- test_context: Homo sapiens, TMD8; TMD-8 cells, 24 h
readout: pIC50
Would you please state pIC50, meaning minus log10 of the concentration in mol/L, as a bare number?

Consider O=C(Nc1cnc(-n2nccn2)c(Cl)c1)c1cnn(-c2cccc3c[n+]([O-])ccc23)c1C(F)(F)F . Its measured pIC50 is 7.00

So for Cc1cnc2cccc(-n3ncc(C(=O)Nc4cnc(-n5nccn5)c(Cl)c4)c3C(F)(F)F)n12 , the logged pIC50 turned out to be 5.64

Reported pIC50 for O=C(Nc1cnc(-n2nccn2)c(Cl)c1)c1cnn(-c2cnc(C3CCN3)c3ccccc23)c1C(F)(F)F (centres unmarked) was 7.82

# pIC50 of O=C(Nc1cnc(-n2nccn2)c(Cl)c1)c1cnn(-c2cccc3[nH]ncc23)c1C(F)(F)F = 6.59

The recorded pIC50 for N#Cc1cc(NC(=O)c2cnn(-c3ccnc4ccoc34)c2C(F)(F)F)cnc1-n1nccn1 is 6.75

The reported pIC50 of the compound O=C(Nc1ccnc(C(F)(F)F)c1)c1cnn(-c2ccc(F)c3nccn23)c1C(F)(F)F was 5.95

Form field pIC50, entry Cn1ccc(-c2ncc(NC(=O)c3cnn(-c4cccc5ncccc45)c3C(F)(F)F)cc2C#N)n1 : 7.02

pIC50 reported for this compound O=C(Nc1cnc(-n2nccn2)c(Cl)c1)c1cnn(-c2cnc(C3CNC3)c3ccccc23)c1C(F)(F)F : 6.95

* * *

Please go through the items and note down their pIC50.
- System: IL10 secretion by TMD8 ABC-DLBCL cells
- test_summary: Human IL10 Mesoscale assay (TMD-8)
- Type: cell-based
- test_context: Homo sapiens, TMD8; TMD-8 cells, 24 h
Scale note: pIC50 = -log10(concentration in M).

Data point: O=C(Nc1cnc(-n2nccn2)c(Cl)c1)c1cnn(-c2cccc3ncccc23)c1Br [Cpd 188] ; pIC50 = 7.30

Sure, the documented pIC50 for O=C(Nc1cnc(-n2nccn2)c(Cl)c1)c1cnn(-c2cnc(N3CC[C@@H](O)C3)c3sccc23)c1C(F)(F)F [Cpd 432] is 6.44

pIC50 in this record for Cn1nnc(-c2ncc(NC(=O)c3cnn(-c4cccc5ncccc45)c3C(F)(F)F)cc2C#N)n1 [Cpd 149] : 5.58

pIC50 reported for this molecule O=C(Nc1cnc(-n2nccn2)c(Cl)c1)c1cnn(-c2cccc3nccc(C(F)F)c23)c1C(F)(F)F [Cpd 396] : 7.41

For this molecule ( O=C(Nc1cnc2[nH]ncc2c1)c1cnn(-c2cccc3ncccc23)c1C(F)(F)F [Cpd 229] ), measured pIC50 is 6.48

pIC50 reported for this molecule Cc1c(C(=O)Nc2cnc(-n3nccn3)c(Cl)c2)cnn1-c1cccc2ncccc12 [Cpd 39] : 6.02

Record N#Cc1cc(NC(=O)c2cnn(-c3cncc4ccccc34)c2C(F)(F)F)cnc1OCCCCN [Cpd 84] , field pIC50: 6.45

The molecule N#Cc1cc(NC(=O)c2cnn(-c3ccnc4c(F)cccc34)c2C(F)(F)F)cnc1-n1nccn1 [Cpd 92] showed pIC50 equal to 6.88

Note to self: pIC50 recorded for CC(C)(C)OC(=O)N1CCC1c1nccc2c(-n3ncc(C(=O)Nc4cnc(-n5nccn5)c(Cl)c4)c3C(F)(F)F)cccc12 (stereo not shown) [Cpd 383] was 6.98

pIC50 for O=C(Nc1cnc(-n2nccn2)c(Cl)c1)c1cnn(-c2c[n+]([O-])cc3ccccc23)c1C(F)(F)F [Cpd 406] is 6.70

The recorded pIC50 for entry N#Cc1cc(NC(=O)c2cnn(-c3cncc4ccccc34)c2C(F)(F)F)ccc1-n1ccnn1 [Cpd 62] equals 7.07

response.value for N#Cc1cc(NC(=O)c2cnn(-c3cnc4ccccn34)c2C(F)(F)F)cnc1-n1nccn1 [Cpd 189] (field: pIC50) = 7.20

Entry N#Cc1nccc2c(-n3ncc(C(=O)Nc4cnc(-n5nccn5)c(Cl)c4)c3C(F)(F)F)cccc12 [Cpd 411] — recorded pIC50 = 5.63

Notebook: CC(F)(F)c1ncc(-n2ncc(C(=O)Nc3cnc(-n4nccn4)c(Cl)c3)c2C(F)(F)F)c2ccccc12 [Cpd 402] , pIC50 read as 7.07

For reference, reported pIC50 for O=C(Nc1cnc(-n2nccn2)c(Cl)c1)c1c(F)nn(-c2cccc3ncccc23)c1C(F)(F)F [Cpd 160] stands at 7.03

// pIC50 value for O=C(Nc1cnc(-n2ncc(CO)n2)c(Cl)c1)c1cnn(-c2cccc3c(=O)[nH]ccc23)c1C(F)(F)F [Cpd 115] : 7.34
